All values here come from patent US20250368627A1.

# System: HCT116 human colorectal carcinoma cells
# protocol_details: CellTiter-Glo Luminescent Cell Viability Assay
# Format: cell-based
# measurement_conditions: HCT-116, 72 h, 3 days
Some molecules, each annotated with its measured EC50.
metric_name: EC50

{"smiles_text": "CC(C)(O)Cn1ncc(S(=O)(=O)Nc2ccc(F)c3c(C#N)c[nH]c23)c1Cl", "result": "> 1 µM"}
{"smiles_text": "O=S(=O)(Nc1cccc2c(Cl)c[nH]c12)c1cnn(C2CCOCC2)c1", "result": "> 1 µM"}
{"smiles_text": "CS(=O)(=O)Cn1cc(S(=O)(=O)Nc2ccc(Cl)c3c(Cl)c[nH]c23)cn1", "result": "< 0.25 µM"}
{"smiles_text": "Cc1ccc(NS(=O)(=O)c2cnn(C3CCC(F)(F)CC3)c2)c2[nH]cc(C#N)c12", "result": "0.25 to 1 µM"}
{"smiles_text": "[2H]C([2H])([2H])n1cc(S(=O)(=O)Nc2ccc(Cl)c3c(C#N)c[nH]c23)cn1", "result": "< 0.25 µM"}
{"smiles_text": "N#CCn1cc(S(=O)(=O)Nc2cccc3c(Cl)c[nH]c23)cn1", "result": "> 1 µM"}
{"smiles_text": "N#Cc1c[nH]c2c(NS(=O)(=O)c3cnn(CF)c3)ccc(Cl)c12", "result": "< 0.25 µM"}
{"smiles_text": "O=S(=O)(Nc1cccc2c(Cl)c[nH]c12)c1cnn(-c2ncc(Cl)cc2F)c1", "result": "> 1 µM"}
{"smiles_text": "N#Cc1c[nH]c2c(NS(=O)(=O)c3cnn(C4(CO)COC4)c3)ccc(Cl)c12", "result": "0.25 to 1 µM"}
{"smiles_text": "CC(C)(O)Cn1cc(S(=O)(=O)Nc2ccc(Cl)c3c(Cl)c[nH]c23)cn1", "result": "0.25 to 1 µM"}
{"smiles_text": "O=S(=O)(Nc1cccc2c(Cl)c[nH]c12)c1cnn(CC2CC(F)(F)C2)c1", "result": "> 1 µM"}
{"smiles_text": "CC1(n2cc(S(=O)(=O)Nc3ccc(Cl)c4c(C#N)c[nH]c34)cn2)COC1", "result": "< 0.25 µM"}
{"smiles_text": "N#Cc1c[nH]c2c(NS(=O)(=O)c3cnn(CF)c3N)ccc(F)c12", "result": "> 1 µM"}

----------
# Tested on: HCT116 human colorectal carcinoma cells
# protocol_details: CellTiter-Glo Luminescent Cell Viability Assay
# Assay type: cell-based
# measurement_conditions: HCT-116, 72 h, 3 days
Some compounds, each annotated with its measured EC50.
metric_name: EC50

{"compound": "COCCOCCn1cc(S(=O)(=O)Nc2cccc3c(Cl)c[nH]c23)cn1 [Compound 23]", "metric_name": "EC50", "result": "> 1000 nM"}
{"compound": "COCC(CO)n1cc(S(=O)(=O)Nc2ccc(C)c3c(C#N)c[nH]c23)cn1 (stereo not drawn) [Compound 263]", "metric_name": "EC50", "result": "250 to 1000 nM"}
{"compound": "O=S(=O)(Nc1ccc(Cl)c2c(Cl)c[nH]c12)c1cnn(C2(CO)COC2)c1 [Compound 167]", "metric_name": "EC50", "result": "250 to 1000 nM"}
{"compound": "Cc1ccc(NS(=O)(=O)c2cnn(CC(=O)N3C[C@@H](F)[C@@H](F)C3)c2)c2[nH]cc(C#N)c12 [Compound 138]", "metric_name": "EC50", "result": "> 1000 nM"}
{"compound": "Cc1ccc(NS(=O)(=O)c2cnn([C@H](C)[C@@H](C)O)c2)c2[nH]cc(C#N)c12 [Compound 287]", "metric_name": "EC50", "result": "< 250 nM"}
{"compound": "NC(=O)Cn1cc(S(=O)(=O)Nc2cccc3c(Cl)c[nH]c23)cn1 [Compound 16]", "metric_name": "EC50", "result": "250 to 1000 nM"}
{"compound": "Cc1ccc(NS(=O)(=O)c2cnn(CC(=O)N3CCCC3)c2)c2[nH]cc(C#N)c12 [Compound 142]", "metric_name": "EC50", "result": "> 1000 nM"}
{"compound": "O=S(=O)(Nc1cccc2c(Cl)c[nH]c12)c1cnn(CC2CC2)c1 [Compound 51]", "metric_name": "EC50", "result": "250 to 1000 nM"}
{"compound": "O=S(=O)(Nc1cccc2c(Cl)c[nH]c12)c1cnn(-c2ccc(F)cn2)c1 [Compound 21]", "metric_name": "EC50", "result": "> 1000 nM"}
{"compound": "O=S(=O)(Nc1ccc(Cl)c2c(Cl)c[nH]c12)c1cnn(CCO)c1 [Compound 163]", "metric_name": "EC50", "result": "< 250 nM"}
{"compound": "N#Cc1c[nH]c2c(NS(=O)(=O)c3c[nH]nc3N)ccc(Cl)c12 [Compound 296]", "metric_name": "EC50", "result": "> 1000 nM"}
{"compound": "COC(=O)Cn1cc(S(=O)(=O)Nc2ccc(C)c3c(C#N)c[nH]c23)cn1 [Compound 133]", "metric_name": "EC50", "result": "> 1000 nM"}
{"compound": "O=S(=O)(Nc1cccc2c(Cl)c[nH]c12)c1cnn(-c2ccc(C(F)(F)F)cn2)c1 [Compound 30]", "metric_name": "EC50", "result": "> 1000 nM"}
{"compound": "N#Cc1c[nH]c2c(NS(=O)(=O)c3cnn([C@H]4C[C@@H](O)C4)c3)ccc(Cl)c12 [Compound 174]", "metric_name": "EC50", "result": "250 to 1000 nM"}
{"compound": "Cc1ccc(NS(=O)(=O)c2cnn(C3(CC#N)COC3)c2)c2[nH]cc(C#N)c12 [Compound 157]", "metric_name": "EC50", "result": "250 to 1000 nM"}
{"compound": "COC(=O)C(C)(C)n1cc(S(=O)(=O)Nc2ccc(Cl)c3c(Cl)c[nH]c23)cn1 [Compound 168]", "metric_name": "EC50", "result": "250 to 1000 nM"}
{"compound": "CC(C)(C)OC(=O)N1CC(F)(Cn2cc(S(=O)(=O)Nc3ccc(Cl)c4c(C#N)c[nH]c34)cn2)C1 [Compound 254]", "metric_name": "EC50", "result": "250 to 1000 nM"}
{"compound": "CC(C)(CO)n1cc(S(=O)(=O)Nc2ccc(Cl)c3c(Cl)c[nH]c23)cn1 [Compound 170]", "metric_name": "EC50", "result": "250 to 1000 nM"}
{"compound": "Cc1ccc(NS(=O)(=O)c2cnn(CCC#N)c2)c2[nH]cc(C#N)c12 [Compound 77]", "metric_name": "EC50", "result": "< 250 nM"}
{"compound": "O=S(=O)(Nc1cccc2c(Cl)c[nH]c12)c1cnn([C@H]2C[C@@H](O)C2)c1 [Compound 194]", "metric_name": "EC50", "result": "> 1000 nM"}
{"compound": "CC(C)(CO)n1cc(S(=O)(=O)Nc2ccc(Cl)c3c(C#N)c[nH]c23)c(Cl)n1 [Compound 260]", "metric_name": "EC50", "result": "> 1000 nM"}
{"compound": "N#Cc1c[nH]c2c(NS(=O)(=O)c3cnn(C[C@H](N)C(F)(F)F)c3)ccc(Cl)c12 [Compound 248]", "metric_name": "EC50", "result": "250 to 1000 nM"}
{"compound": "Cc1ccc(NS(=O)(=O)c2cnn(C3CC4(COC4)C3)c2)c2[nH]cc(C#N)c12 [Compound 85]", "metric_name": "EC50", "result": "250 to 1000 nM"}
{"compound": "CCn1cc(S(=O)(=O)Nc2ccc(Cl)c3c(C#N)c[nH]c23)cn1 [Compound 127]", "metric_name": "EC50", "result": "250 to 1000 nM"}
{"compound": "Cc1ccc(NS(=O)(=O)c2cnn(C)c2Cl)c2[nH]cc(C#N)c12 [Compound 155]", "metric_name": "EC50", "result": "< 250 nM"}
{"compound": "Cc1ccc(NS(=O)(=O)c2cnn(CC(C)(C)O)c2)c2[nH]cc(C#N)c12 [Compound 108]", "metric_name": "EC50", "result": "250 to 1000 nM"}
{"compound": "Cc1ccc(NS(=O)(=O)c2cnn(CC(C)(C)O)c2N)c2[nH]cc(C#N)c12 [Compound 283]", "metric_name": "EC50", "result": "250 to 1000 nM"}
{"compound": "CCCn1cc(S(=O)(=O)Nc2ccc(C)c3c(C#N)c[nH]c23)cn1 [Compound 90]", "metric_name": "EC50", "result": "< 250 nM"}
{"compound": "N#Cc1c[nH]c2c(NS(=O)(=O)c3cnn(CC(F)(F)F)c3)ccc(Cl)c12 [Compound 120]", "metric_name": "EC50", "result": "< 250 nM"}
{"compound": "N#Cc1c[nH]c2c(NS(=O)(=O)c3cnn(CC4(O)CCOCC4)c3)ccc(Cl)c12 [Compound 184]", "metric_name": "EC50", "result": "> 1000 nM"}
{"compound": "Cc1ccc(NS(=O)(=O)c2cnn(C)c2N)c2[nH]cc(C#N)c12 [Compound 161]", "metric_name": "EC50", "result": "< 250 nM"}
{"compound": "Cn1ncc(S(=O)(=O)Nc2ccc(Cl)c3c(C#N)c[nH]c23)c1Cl [Compound 156]", "metric_name": "EC50", "result": "250 to 1000 nM"}
{"compound": "N#Cc1c[nH]c2c(NS(=O)(=O)c3cn[nH]c3)ccc(Cl)c12 [Compound 121]", "metric_name": "EC50", "result": "250 to 1000 nM"}
